From: paper PMC12040169

Known viability at 28.5 h, 10 µM of a selection of molecules
- method: in vitro
- conditionDetails: human, hela cells, % viability
quantityName: viability at 28.5 h, 10 µM (%)

>  <molecule>
Cc1ncsc1CCOc1cc(NC(C)C)ncn1

>  <quantityName>
viability at 28.5 h, 10 µM

>  <unitString>
%

>  <val>
84.8

$$$$
>  <molecule>
CCn1c2ccccc2c2cc(C(N)=O)c(N)nc21

>  <quantityName>
viability at 28.5 h, 10 µM

>  <unitString>
%

>  <val>
85.2

$$$$
>  <molecule>
O=C(CSc1nc2sc3c(c2c(=O)n1Cc1ccco1)CCC3)NCc1ccco1

>  <quantityName>
viability at 28.5 h, 10 µM

>  <unitString>
%

>  <val>
101

$$$$
>  <molecule>
COc1cc(CNCc2cccnc2)cc(Br)c1OCc1ccc(Cl)cc1 [CBK074596C]

>  <quantityName>
viability at 28.5 h, 10 µM

>  <unitString>
%

>  <val>
107

$$$$
>  <molecule>
COc1ccc(CCNC(=O)N(C)C2CCN(C)C2)cc1OC (stereo not drawn)

>  <quantityName>
viability at 28.5 h, 10 µM

>  <unitString>
%

>  <val>
97.9

$$$$
>  <molecule>
CC1CC1C(=O)NCC(=O)Nc1nc2ccc(OC(F)(F)F)cc2s1 (stereo not drawn)

>  <quantityName>
viability at 28.5 h, 10 µM

>  <unitString>
%

>  <val>
98.3

$$$$
>  <molecule>
O=C(O)[C@H]1CN(C(=O)CCc2ccco2)C[C@@H]1c1ccc(F)cc1

>  <quantityName>
viability at 28.5 h, 10 µM

>  <unitString>
%

>  <val>
86.5

$$$$
>  <molecule>
COc1ccccc1N1CCN(C2CCN(Cc3ccc([N+](=O)[O-])cc3)CC2)CC1 [CBK264734G]

>  <quantityName>
viability at 28.5 h, 10 µM

>  <unitString>
%

>  <val>
98.8

$$$$
>  <molecule>
O=C(c1ccc(F)cc1F)N1CCC(O)(c2ccccn2)CC1

>  <quantityName>
viability at 28.5 h, 10 µM

>  <unitString>
%

>  <val>
107

$$$$

----------
Known viability at 28.5 h, 10 µM of a selection of compounds
- method: in vitro
- conditionDetails: human, hela cells, % viability
quantityName: viability at 28.5 h, 10 µM (%)

>  <compound>
Cc1nn(C)cc1S(=O)(=O)N1CCCC(c2cccc(Cc3ccccc3Cl)n2)C1 (stereo not shown)

>  <unitString>
%

>  <val>
106

$$$$
>  <compound>
Cc1cc(CN(C)Cc2ccc3c(c2)n(C)c(=O)n3C)n[nH]1

>  <unitString>
%

>  <val>
101

$$$$
>  <compound>
CCN(CC)CCOC(=O)c1ccc(N)cc1 [CBK004330C]

>  <unitString>
%

>  <val>
84.5

$$$$
>  <compound>
CC(C)(C)n1cc(C(=O)N2CCNCC2c2cccc(Cl)c2)cn1 (stereo not shown)

>  <unitString>
%

>  <val>
96.9

$$$$
>  <compound>
CCCc1cc(-c2c(Cl)cccc2Cl)[nH]n1

>  <unitString>
%

>  <val>
91.2

$$$$
>  <compound>
CCOc1ccc(N2C(=O)CC(NC3CCN(c4ncccn4)CC3)C2=O)cc1 (stereo not shown)

>  <unitString>
%

>  <val>
112

$$$$
>  <compound>
O=C(c1cccc(F)c1)N1CCCC1c1n[nH]cc1-c1ccncc1 (stereo not shown)

>  <unitString>
%

>  <val>
93.2

$$$$
>  <compound>
N#Cc1ccc(Oc2cccc(C(F)(F)F)c2)c(F)c1

>  <unitString>
%

>  <val>
88.3

$$$$
>  <compound>
Cn1c(=O)n(Cc2ccccn2)c(=O)c2cnc(-c3ccncc3)nc21

>  <unitString>
%

>  <val>
79

$$$$
>  <compound>
CCc1cc(CNS(=O)(=O)Cc2cccc(F)c2)on1

>  <unitString>
%

>  <val>
92.1

$$$$
